- Tested on: CCRIS mutagenicity, Ames/micronucleus/aberration tests
- experimentDescription: CCRIS mutagenicity studies
- reportedConditions: Test System: MOUSE LYMPHOMA; Strain/Indicator: L5178Y (TK+/TK-); Metabolic Activation: NONE; Method: SUSPENSION/PLATE
Calls of active or inactive are those of the source. No rule for the calls is given here.
Write down one outcome, taken from true for active, false for inactive

For orientation, consider the following solved cases.
> print(dat)
                 structurestring  classassignment
1                      C=C(Cl)Cl            false
2  O=[N+]([O-])/C(Br)=C\c1ccccc1            false
3                    ON=C1CCCCC1             true

Short answer needed: outcome of this test for `CC1(C)S[C@@H]2[C@H](NC(=O)[C@H](N)c3ccccc3)C(=O)N2[C@H]1C(=O)O` ?
false

Short answer needed: outcome of this test for `Oc1ccc(Cl)cc1Cl` ?
true
